# System: TK-10 renal
# test.summary: NCI tumour cell line growth inhibition, 48 h; in the data active means GI50 below about 0.43 µM; inactive means the rest
Classes used: t (active), f (inactive)

{"columns": ["molecule", "category"],
 "data": [
  ["COc1cc(/C=C2\\C(=O)Nc3cc(C)c(O)cc32)cc(OC)c1OC", "f"],
  ["CC[N+](CC)=c1sc2c(s1)C(c1ccc(Cl)cc1)Oc1ccc(Cl)cc1-2 (centres undefined)", "f"],
  ["COc1ccc2c(c1)C(=O)c1c-2n(CCCN=[N+]=[N-])c(=O)c2cc(OC)c(OC)cc12", "f"],
  ["CCC[CH2][Sn]([CH2]CCC)([CH2]CCC)[O]c1ccc(Cl)cc1Cl", "t"]
]}

====

# System: LOX IMVI melanoma
# test.summary: NCI tumour cell line growth inhibition, 48 h
quantity: TGI

{"columns": ["smiles.code", "quantity", "result"],
 "data": [
  ["CCOC(=O)c1ccc(Nc2c3c(nc4ccccc24)CCCC3)cc1", "TGI", "> 100 µM"],
  ["CNC(=O)c1ccc(N2CCN(Cc3ccc4nc(C)c(=O)[nH]c4c3F)CC2)c(F)n1", "TGI", "> 100 µM"],
  ["CCOc1ccc2nc(SCc3nc4n(n3)S(=O)(=O)c3ccccc3N4C)sc2c1", "TGI", "> 100 µM"],
  ["O=S(=O)(Nc1ccccc1Cl)c1ccc(-c2cnc(C3CC3)o2)cc1", "TGI", "> 90.8 µM"],
  ["Cc1ccsc1/C=N/Nc1nc2ccccc2s1", "TGI", "> 100 µM"],
  ["CC[C@H](O)[C@H](C)C=C1SCCCS1", "TGI", "> 100 µM"]
]}

====

# Tested on: HOP-92 NSCLC
# test.summary: NCI tumour cell line growth inhibition, 48 h; in the data active = GI50 below about 0.43 µM; inactive = the rest
Outcome codes: True for active, False for inactive

{"columns": ["molecule", "measurement.target", "category"],
 "data": [
  ["Cc1nc(SCC(=O)Nc2nc(-c3ccc(Cl)cc3)cs2)n(Nc2ccccc2)c1C", "HOP-92 NSCLC", "False"],
  ["CC(=O)[CH-]C(C)=O.CC(=O)[CH-]C(C)=O.[CH2-]CCC.[CH2-]CCC.[Sn+4]", "HOP-92 NSCLC", "True"],
  ["Cc1ccc(C)c2c1C(O)(C#Cc1ccccc1)c1ccccc1C2(O)C#Cc1ccccc1 (stereo not drawn)", "HOP-92 NSCLC", "False"]
]}

====

# Tested on: NCI-H522 lung
# test.summary: NCI tumour cell line growth inhibition, 48 h
Recorded TGI for the following compounds

{"columns": ["compound", "TGI"],
 "data": [
  ["COCCCNC(=O)C1C(=O)N(CCCOC)C(=O)/C1=N\\N (stereo unspecified)", "> 100 µM"],
  ["CCSc1sc(=Nc2ccc(N=c3sc(C)c(SC)s3)cc2)sc1-c1ccc(C)cc1", "> 100 µM"],
  ["Nc1ccccc1C(=O)CC1OC(=O)c2ccccc21 (stereo unspecified)", "> 100 µM"],
  ["CC(=O)OCCCOCn1c(Cc2ccccc2)c(C)c(=O)[nH]c1=O", "> 100 µM"],
  ["Cc1[nH]c2c(c1C)S(=O)(=O)c1cc3ccccc3nc1N2", "52 µM"],
  ["O=C1CC2(c3ccccc3)ON=C(c3ccccc3)N2c2ccccc2N1 (stereo unspecified)", "> 100 µM"],
  ["CC(C)(C)N=NNc1cn(C2OC(CO)C(O)C2O)c(=O)[nH]c1=O (stereo unspecified)", "> 100 µM"],
  ["Clc1nc(Cl)c2ncn(Cc3cccc(Cn4cnc5c(Cl)nc(Cl)nc54)c3)c2n1", "7.01 µM"],
  ["COc1ccc2c(c1)C(=O)c1c-2n(CCCN=[N+]=[N-])c(=O)c2cc(OC)c(OC)cc12", "> 100 µM"],
  ["COC(=O)[C@]1(c2cc3ccccc3n2S(=O)(=O)c2ccccc2)CC2CN(C(C)=O)C1CC2=O (stereo partly specified)", "4.62 µM"],
  ["CC(C)(C)C(=O)c1c(C(F)(F)F)n([O-])c2ccccc2[n+]1=O", "0.924 µM"],
  ["Cc1ccc(S(=O)(=O)N/N=C(\\c2nc3ccc(Cl)cc3[nH]c2=O)C(O)c2cccc([N+](=O)[O-])c2)cc1 (stereo unspecified)", "> 100 µM"],
  ["COc1cc(OC)cc(N(CCNC(C)C)c2ccc3ncc(-c4cnn(C)c4)nc3c2)c1", "23.4 µM"],
  ["COC(=O)[C@@H]1[C@@H](c2cccc(Cl)c2)[C@H](C(=O)OC)C2(C[C@@]1(C)O)NCCS2 (stereo partly specified)", "> 100 µM"],
  ["Cc1c(Cl)c2ccccc2n1S(=O)(=O)c1ccccc1", "67.1 µM"],
  ["CCOP(=O)(OCC)/C(C#N)=C/c1cn(C)cn1", "> 100 µM"]
]}
